Molecular target: T1, human IGF2^1-67 (mature insulin-like growth factor 2) (human, UniProt P01344 25-91, biotinylated (site not stated) where immobilised on the chip (Tables 1-4))
T1 construct: mature; also called mature IGF2; biotinylated IGF2
T1 sequence (P01344 25-91): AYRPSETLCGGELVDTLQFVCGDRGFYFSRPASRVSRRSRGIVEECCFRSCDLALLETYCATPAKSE
Test: SPR steady state, biotin-IGF2 on chip
Reported Property: Kd (nM)
Please reply with the bare figure in nM and do not write the unit itself.

Task: Can you share its Kd? I mean this binder: domain 11^WT + 312G (HI-VKLM) (receptor, See m5; Protein quality poor) MKSNEHDDCQVTNPSTGHLFDLSSLSGRAGFTAAYSEKGLVYMSICGENENCPPGVGACFGQTRISVGKANKRLRYVDQVLQLVYKDGSPCPSKSGLSYKSVISFVCRPEAGPTNRPMLISLVKLMCTLFFSWHTPLACEQATECSV
Result: 135

Task: Lookup domain 11^WT + 26C (HI-DMQT) (receptor, See m5; Protein quality poor) MKSNEHDDCQVTNPSTGHLFDLSSLSGRAGFTAAYSEKGLVYMSICGENENCPPGVGACFGQTRISVGKANKRLRYVDQVLQLVYKDGSPCPSKSGLSYKSVISFVCRPEAGPTNRPMLISLDMQTCTLFFSWHTPLACEQATECSV
Result: 127

Task: Lookup domain 11^AB3 P1597H (receptor, See m5; also called AB3 + 62B (FG-P1597H)) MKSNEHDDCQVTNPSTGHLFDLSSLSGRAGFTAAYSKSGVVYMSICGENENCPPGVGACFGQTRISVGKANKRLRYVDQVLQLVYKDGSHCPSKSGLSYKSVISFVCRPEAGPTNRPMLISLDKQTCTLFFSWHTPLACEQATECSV
Result: 1.76
